System: Mycobacterium tuberculosis
Test: Antimycobacterial activity against Mycobacterium bovis BCG after 7 days
Assay type: functional
Conditions: variant bovis BCG, 168 h
Please respond with reported MIC for every item in the list.
# unit: µg/mL | format: bare number

Here CC(=O)Nc1cccc(-c2ccc(C(=O)Nc3cc(C(=O)Nc4cc(C(=O)NCCCN(C)C)n(C)c4)n(C)c3)o2)c1 was tested on Mycobacterium tuberculosis, and its MIC came to 125

Recorded MIC for NNC(=O)c1ccncc1 on Mycobacterium tuberculosis was 0.05

Given the molecule Cc1nc(-c2ccsc2)sc1C(=O)Nc1cc(C(=O)Nc2cc(C(=O)NCCCN(C)C)n(C)c2)n(C)c1 and test system Mycobacterium tuberculosis, the measured MIC is 125

Item Cn1cc(NC(=O)c2cc(NC(=O)c3cc(NC=O)cn3C)cn2C)cc1C(=O)NCCC(=N)N was tested on Mycobacterium tuberculosis; the reported MIC is 1.95

Entry CC(=O)Nc1ccc(-c2csc(C(=O)Nc3cc(C(=O)Nc4cc(C(=O)NCCCN(C)C)n(C)c4)n(C)c3)c2)cc1 under Mycobacterium tuberculosis had MIC of 125

----------
Test system: Mycobacterium tuberculosis
Experiment: Antimycobacterial activity against Mycobacterium bovis BCG after 7 days
Format: functional
Details: variant bovis BCG, 168 h
What MIC was measured for each of the following?
Respond numerically; units are µg/mL and should not be typed.

// sample CO[C@H]1/C=C/O[C@@]2(C)Oc3c(C)c(O)c4c(O)c(c(/C=N/N5CCN(C)CC5)c(O)c4c3C2=O)NC(=O)/C(C)=C\C=C\[C@H](C)[C@H](O)[C@@H](C)[C@@H](O)[C@@H](C)[C@H](OC(C)=O)[C@@H]1C , its MIC was 0.05

For record CC(=O)Nc1ccc(-c2cc(C(=O)Nc3cc(C(=O)Nc4cc(C(=O)NCCCN(C)C)n(C)c4)n(C)c3)n(C)c2)cc1 the listed MIC is 125

The compound listed as Cc1nc(-c2cnn(C)c2)sc1C(=O)Nc1cc(C(=O)Nc2cc(C(=O)NCCCN(C)C)n(C)c2)n(C)c1 has a reported MIC of 62.5

Summary for this compound, CC(=O)Nc1ccc(-c2ccc(C(=O)Nc3cc(C(=O)Nc4cc(C(=O)NCCCN(C)C)n(C)c4)n(C)c3)o2)cc1 : MIC is 125
